System: PDGF-R
Experiment: PDGF-R Assay (cellular ELISA, U1242 cells)
Type: cell-based
Design: concentration or dose not given beside the values
Conditions: protocol P.119
measured-attribute: PDGF Kinase % Inhibition (P.119) (%)

{"compound": "O=C1Nc2c(Br)cc(Br)cc2C1=Cc1ccc(CO)o1 [10739/A11]", "experimental-target": "PDGF-R", "measured-attribute": "PDGF Kinase % Inhibition (P.119)", "assay-value": 1.8}
{"compound": "COc1ccc(C=C2C(=O)Nc3c(Br)cc(Br)cc32)cc1C [10739/A02]", "experimental-target": "PDGF-R", "measured-attribute": "PDGF Kinase % Inhibition (P.119)", "assay-value": 21.7}
{"compound": "O=C1Nc2ccc(S(=O)(=O)N3CCOCC3)cc2C1=Cc1ccc(Oc2ccccc2)cc1 [10737/F09]", "experimental-target": "PDGF-R", "measured-attribute": "PDGF Kinase % Inhibition (P.119)", "assay-value": 9.8}
{"compound": "CNS(=O)(=O)c1ccc2c(c1)C(=Cc1ccc(OCCCN(C)C)cc1)C(=O)N2 [10739/D09]", "experimental-target": "PDGF-R", "measured-attribute": "PDGF Kinase % Inhibition (P.119)", "assay-value": 4.7}
{"compound": "CCOc1ccc(C=C2C(=O)Nc3ccc(Br)c(C)c32)cc1 [10737/C02]", "experimental-target": "PDGF-R", "measured-attribute": "PDGF Kinase % Inhibition (P.119)", "assay-value": "−2.2"}
{"compound": "Cc1c(Br)ccc2c1C(=Cc1cc(F)ccc1F)C(=O)N2 [10737/C04]", "experimental-target": "PDGF-R", "measured-attribute": "PDGF Kinase % Inhibition (P.119)", "assay-value": 25.7}
{"compound": "Cc1c(Br)cc(Br)c2c1C(=Cc1ccccc1C(F)(F)F)C(=O)N2 [10736/H03]", "experimental-target": "PDGF-R", "measured-attribute": "PDGF Kinase % Inhibition (P.119)", "assay-value": 2.2}
{"compound": "CC(C)(C)c1ccc(Oc2cccc(C=C3C(=O)Nc4ccc(S(=O)(=O)N5CCOCC5)cc43)c2)cc1 [10737/F10]", "experimental-target": "PDGF-R", "measured-attribute": "PDGF Kinase % Inhibition (P.119)", "assay-value": 11.0}
{"compound": "O=C1Nc2c(Br)cc(Br)cc2C1=Cc1ccc2ccccc2c1 [10737/A08]", "experimental-target": "PDGF-R", "measured-attribute": "PDGF Kinase % Inhibition (P.119)", "assay-value": 1.0}

====

Molecular target: Met receptor (EGFR/Met chimeric cells, EMR) (Homo sapiens, UniProt P08581)
Construct: expressed in transfected cells; the other entry of the earlier key: EGFR (P00533, Epidermal growth factor receptor)
Sequence (P08581 with tags, fused parts or gaps): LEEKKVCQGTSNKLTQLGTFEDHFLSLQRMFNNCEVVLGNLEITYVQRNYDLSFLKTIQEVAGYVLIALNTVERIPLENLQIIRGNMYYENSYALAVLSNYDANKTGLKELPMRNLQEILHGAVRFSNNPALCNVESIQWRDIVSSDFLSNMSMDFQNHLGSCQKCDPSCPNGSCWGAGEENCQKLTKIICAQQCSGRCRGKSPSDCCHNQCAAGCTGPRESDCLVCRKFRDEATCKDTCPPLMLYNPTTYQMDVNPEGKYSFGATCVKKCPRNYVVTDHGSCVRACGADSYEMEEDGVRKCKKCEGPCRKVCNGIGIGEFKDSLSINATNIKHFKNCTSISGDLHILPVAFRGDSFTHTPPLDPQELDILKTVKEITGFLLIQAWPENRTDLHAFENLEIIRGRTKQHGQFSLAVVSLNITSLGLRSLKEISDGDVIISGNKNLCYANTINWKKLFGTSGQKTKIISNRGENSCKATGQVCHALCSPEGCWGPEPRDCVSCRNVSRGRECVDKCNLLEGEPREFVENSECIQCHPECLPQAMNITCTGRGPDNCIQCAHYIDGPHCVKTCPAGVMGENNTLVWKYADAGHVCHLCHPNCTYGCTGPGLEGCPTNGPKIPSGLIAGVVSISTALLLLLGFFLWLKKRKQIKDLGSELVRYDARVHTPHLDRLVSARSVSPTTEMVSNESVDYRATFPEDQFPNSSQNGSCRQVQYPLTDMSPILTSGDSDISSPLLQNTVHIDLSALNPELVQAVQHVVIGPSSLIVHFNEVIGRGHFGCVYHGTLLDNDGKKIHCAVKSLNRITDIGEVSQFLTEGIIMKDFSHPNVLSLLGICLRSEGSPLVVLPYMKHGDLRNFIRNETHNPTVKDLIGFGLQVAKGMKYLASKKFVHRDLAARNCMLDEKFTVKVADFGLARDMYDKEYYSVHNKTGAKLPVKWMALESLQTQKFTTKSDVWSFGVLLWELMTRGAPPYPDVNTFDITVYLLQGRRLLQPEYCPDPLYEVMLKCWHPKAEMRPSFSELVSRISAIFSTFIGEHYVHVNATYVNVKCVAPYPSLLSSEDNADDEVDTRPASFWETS
Assay: Met Autophosphorylation Assay
Assay type: biochemical
In this section we review reported Met Kinase % Inhibition (P.130) values for a set of compounds.

{"compound": "Cc1c(Br)cc(Br)c2c1C(=Cc1sccc1Br)C(=O)N2", "experimental-target": "Met receptor (EGFR/Met chimeric cells, EMR) (Homo sapiens, UniProt P08581)", "Met Kinase % Inhibition (P.130)": "15.8%"}
{"compound": "COc1c(C(C)C)cc(C=C2C(=O)Nc3c(Br)cc(Br)c(C)c32)cc1C(C)C", "experimental-target": "Met receptor (EGFR/Met chimeric cells, EMR) (Homo sapiens, UniProt P08581)", "Met Kinase % Inhibition (P.130)": "24.1%"}
{"compound": "Cc1c(Br)cc(Br)c2c1C(=Cc1ccc([N+](=O)[O-])s1)C(=O)N2", "experimental-target": "Met receptor (EGFR/Met chimeric cells, EMR) (Homo sapiens, UniProt P08581)", "Met Kinase % Inhibition (P.130)": "62.2%"}
{"compound": "O=C1Nc2ccc(S(=O)(=O)Nc3ccc(C(F)(F)F)cc3)cc2C1=Cc1ccc(F)c(F)c1", "experimental-target": "Met receptor (EGFR/Met chimeric cells, EMR) (Homo sapiens, UniProt P08581)", "Met Kinase % Inhibition (P.130)": "71.8%"}
{"compound": "O=C1Nc2ccc(S(=O)(=O)N3CCOCC3)cc2C1=Cc1cc(Cl)cc(Cl)c1O", "experimental-target": "Met receptor (EGFR/Met chimeric cells, EMR) (Homo sapiens, UniProt P08581)", "Met Kinase % Inhibition (P.130)": "86.8%"}
{"compound": "Cc1c(Br)cc(Br)c2c1C(=Cc1cc([N+](=O)[O-])ccc1O)C(=O)N2", "experimental-target": "Met receptor (EGFR/Met chimeric cells, EMR) (Homo sapiens, UniProt P08581)", "Met Kinase % Inhibition (P.130)": "26.5%"}
{"compound": "C=C(C)C1CC=C(C=C2C(=O)Nc3c(Br)cc(Br)c(C)c32)CC1 (centres unmarked)", "experimental-target": "Met receptor (EGFR/Met chimeric cells, EMR) (Homo sapiens, UniProt P08581)", "Met Kinase % Inhibition (P.130)": "41.0%"}
{"compound": "Cc1c(Br)cc(Br)c2c1C(=Cc1cc(C(C)(C)C)c(OCc3ccccc3)c(C(C)(C)C)c1)C(=O)N2", "experimental-target": "Met receptor (EGFR/Met chimeric cells, EMR) (Homo sapiens, UniProt P08581)", "Met Kinase % Inhibition (P.130)": "5.6%"}
{"compound": "Cc1cc(C=C2C(=O)Nc3c(Br)cc(Br)c(C)c32)cc(C(C)(C)C)c1O", "experimental-target": "Met receptor (EGFR/Met chimeric cells, EMR) (Homo sapiens, UniProt P08581)", "Met Kinase % Inhibition (P.130)": "77.6%"}
{"compound": "COc1ccc(C=C2C(=O)Nc3c(Br)cc(Br)c(C)c32)cc1OC", "experimental-target": "Met receptor (EGFR/Met chimeric cells, EMR) (Homo sapiens, UniProt P08581)", "Met Kinase % Inhibition (P.130)": "21.3%"}
{"compound": "Cc1c(Br)cc(Br)c2c1C(=Cc1ccccc1OCC(=O)O)C(=O)N2", "experimental-target": "Met receptor (EGFR/Met chimeric cells, EMR) (Homo sapiens, UniProt P08581)", "Met Kinase % Inhibition (P.130)": "65.2%"}
{"compound": "O=C1Nc2ccc(S(=O)(=O)Nc3ccc(C(F)(F)F)cc3)cc2C1=Cc1ccc(-c2ccccc2)cc1", "experimental-target": "Met receptor (EGFR/Met chimeric cells, EMR) (Homo sapiens, UniProt P08581)", "Met Kinase % Inhibition (P.130)": "7.2%"}
{"compound": "CNS(=O)(=O)c1ccc2c(c1)C(=Cc1ccccc1Cl)C(=O)N2", "experimental-target": "Met receptor (EGFR/Met chimeric cells, EMR) (Homo sapiens, UniProt P08581)", "Met Kinase % Inhibition (P.130)": "22.6%"}
{"compound": "CNS(=O)(=O)c1ccc2c(c1)C(=Cc1cccc(F)c1O)C(=O)N2", "experimental-target": "Met receptor (EGFR/Met chimeric cells, EMR) (Homo sapiens, UniProt P08581)", "Met Kinase % Inhibition (P.130)": "49.8%"}
{"compound": "Cc1c(Br)cc(Br)c2c1C(=Cc1cc(I)c(OCc3ccccc3)c(C(C)(C)C)c1)C(=O)N2", "experimental-target": "Met receptor (EGFR/Met chimeric cells, EMR) (Homo sapiens, UniProt P08581)", "Met Kinase % Inhibition (P.130)": "38.9%"}
{"compound": "Cc1c(Br)cc(Br)c2c1C(=Cc1cc(Br)c(O)c(C(C)(C)C)c1)C(=O)N2", "experimental-target": "Met receptor (EGFR/Met chimeric cells, EMR) (Homo sapiens, UniProt P08581)", "Met Kinase % Inhibition (P.130)": "46.9%"}
{"compound": "COc1ccc(C=C2C(=O)Nc3c(Br)cc(Br)c(C)c32)c(OC)c1", "experimental-target": "Met receptor (EGFR/Met chimeric cells, EMR) (Homo sapiens, UniProt P08581)", "Met Kinase % Inhibition (P.130)": "0.7%"}

====

Target: Met receptor (EGFR/Met chimeric cells, EMR) (Homo sapiens)
Construct: expressed in transfected cells; the other entry of the earlier key: EGFR (P00533, Epidermal growth factor receptor)
Assay: Met Autophosphorylation Assay
Format: biochemical
Details: protocol P.130
measured-attribute: Met Kinase % Inhibition (P.130)

{"line-notation": "COc1ccc(C=C2C(=O)Nc3ccc(S(=O)(=O)N4CCOCC4)cc32)cc1O", "assay-value": "61.4%"}
{"line-notation": "O=C1Nc2c(Br)cc(Br)cc2C1=Cc1cccc(Oc2cccc(C(F)(F)F)c2)c1", "assay-value": "25.3%"}
{"line-notation": "O=C1Nc2ccc(S(=O)(=O)Nc3ccc(C(F)(F)F)cc3)cc2C1=Cc1ccnc2ccccc12", "assay-value": "66.4%"}
{"line-notation": "O=C1Nc2c(Br)cc(Br)cc2C1=Cc1ccc(Oc2ccccc2)cc1", "assay-value": "47.9%"}
